# experimentalSystem: Carbonic anhydrase 9 (Homo sapiens, UniProt Q16790)
Answer each item with its documented pKi.
Numbers only, as −log10 of the molar value.

Reference set, count: 2
• Cc1cc(C)[n+](CCc2ccc(S(N)(=O)=O)cc2)c(C)c1C = 8.10
• CCCCc1cc(-c2ccccc2)cc(-c2ccccc2)[n+]1CCc1ccc(S(N)(=O)=O)cc1 = 6.92

Q: So what's the measured pKi for this one? CCc1cc(-c2ccccc2)cc(CC)[n+]1CCc1ccc(S(N)(=O)=O)cc1
A: 8.10

###

# experimentalSystem: Carbonic anhydrase 4 (Bos taurus, UniProt Q95323)
# Sequence (Q95323 whole entry): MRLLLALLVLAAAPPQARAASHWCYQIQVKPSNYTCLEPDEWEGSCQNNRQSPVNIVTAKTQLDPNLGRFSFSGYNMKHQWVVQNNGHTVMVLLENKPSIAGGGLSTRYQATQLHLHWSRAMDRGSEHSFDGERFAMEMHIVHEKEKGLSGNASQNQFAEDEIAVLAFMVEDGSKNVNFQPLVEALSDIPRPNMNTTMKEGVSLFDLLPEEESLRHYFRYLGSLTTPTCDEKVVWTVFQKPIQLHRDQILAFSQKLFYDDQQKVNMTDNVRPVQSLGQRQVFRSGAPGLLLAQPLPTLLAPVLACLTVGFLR
propertyLabel: Ki (nM)
Numbers only, in nM.

• Cc1cc(-c2ccccc2)cc(C)[n+]1Cc1ccc(S(N)(=O)=O)cc1 = 70

We now examine a further compound.
Q: Which Ki reading was recorded for the compound CCc1cc(-c2ccccc2)cc(-c2ccccc2)[n+]1Cc1ccc(S(N)(=O)=O)cc1 ?
A: 983

###

Form: system (Carbonic anhydrase 1 (Homo sapiens, UniProt P00915)), quantity (Ki), values below.
Numbers only, in µM.

Observe how each entry below is paired with its result.
• Cc1cc(C)[n+](CCc2ccc(S(N)(=O)=O)cc2)c(C)c1C = 2
• CCc1cc(-c2ccccc2)cc(-c2ccccc2)[n+]1Cc1ccc(S(N)(=O)=O)cc1 = 42
• CCc1cc(-c2ccccc2)cc(CC)[n+]1Cc1ccc(S(N)(=O)=O)cc1 = 2
• CCc1cc(-c2ccccc2)cc(-c2ccccc2)[n+]1CCc1ccc(S(N)(=O)=O)cc1 = 40
• Cc1cc(-c2ccccc2)cc(-c2ccccc2)[n+]1-c1ccc(S(N)(=O)=O)cc1 = 40

For each entry beneath this line, provide reported Ki.
1. Cc1cc(-c2ccccc2)cc(C)[n+]1Cc1ccc(S(N)(=O)=O)cc1
2. CCCc1cc(-c2ccccc2)cc(CCC)[n+]1-c1ccc(S(N)(=O)=O)cc1
3. CCCCc1cc(-c2ccccc2)cc(-c2ccccc2)[n+]1Cc1ccc(S(N)(=O)=O)cc1
4. CCc1cc(-c2ccccc2)cc(CC)[n+]1-c1ccc(S(N)(=O)=O)cc1
5. Cc1cc(C(C)C)[n+](CCc2ccc(S(N)(=O)=O)cc2)c(C(C)C)c1
6. CCCc1cc(-c2ccccc2)cc(CCC)[n+]1CCc1ccc(S(N)(=O)=O)cc1

A:
4
10
300
6
3
7

Please supply Ki for each of the following items, keeping them in order.
1. Cc1cc(C)[n+](-c2ccc(S(N)(=O)=O)cc2)c(C)c1
2. Cc1cc(-c2ccccc2)cc(C)[n+]1CCc1ccc(S(N)(=O)=O)cc1
3. CCCc1cc(-c2ccccc2)cc(-c2ccccc2)[n+]1CCc1ccc(S(N)(=O)=O)cc1
4. CC(C)c1cc(-c2ccccc2)cc(C(C)C)[n+]1CCc1ccc(S(N)(=O)=O)cc1
5. Cc1cc(C)[n+](-c2ccc(S(N)(=O)=O)cc2)c(C)c1C
6. Cc1cc(C)[n+](Cc2ccc(S(N)(=O)=O)cc2)c(C)c1C
7. CC(C)c1cc(-c2ccccc2)cc(C(C)C)[n+]1-c1ccc(S(N)(=O)=O)cc1

A:
[10, 1, 112, 6, 5, 3, 5]

Q: Request: Ki, test system Carbonic anhydrase 1 (Homo sapiens, UniProt P00915), entry Cc1cc(-c2ccccc2)cc(C)[n+]1-c1ccc(S(N)(=O)=O)cc1
A: 7
